- subject-of-test: T1, N1 binding to cell surface expressed hJ1 (Homo sapiens, UniProt P78504)
- T1 construct: cell expressed full length human J1 (hJ1; HEK293 transfectants); expressed in transfected cells; host or cells: HEK293
- protocol-summary: Notch binding blocking assay (FACS): N1 EGF11-13 beads staining human J1-expressing cells
- protocol-conditions: final antibody concentration 0.4 μg/ml
measure-name: Blocking of Notch1 binding to cell surface Jagged 1

J1-183D variant 11: humanised/de-immunised J1-183D: J1-183D_VL_3 + J1-183D_VH_3 (antibody, V domains shown) VH: QVQLVQSGAELKKPGASVKVSCKVSGYAFTDYAIHWVRQAPGQGLEWMGIINTYYGDSKYAQKFQGRVTMTVDTSTSTAYMELSSLRSEDTAVYYCARGYDGFAYWGQGTLVTVSSASTKGP VL: DIQMTQSPSSLSASVGDRVTITCRTSENIYSYLTWYQQKPGKAPKLLIYNAKILDSGVPSRFSGSGSGTDFTLTISSLQPEDFATYYCQHHYDIPWTFGGGTKLEIKRT : + (Complete blocking)
J1-183D variant 4: humanised/de-immunised J1-183D: J1-183D_VL_1 + J1-183D_VH_4 (antibody, V domains shown) VH: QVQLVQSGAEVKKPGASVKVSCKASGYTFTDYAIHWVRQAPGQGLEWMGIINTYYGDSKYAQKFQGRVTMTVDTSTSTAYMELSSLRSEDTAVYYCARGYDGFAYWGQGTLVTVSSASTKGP VL: DIQMTQSPSSLSASVGDRVTITCRTSENIYSYLTWYQQKPGKAPKLLVYNAKILAAGVPSRFSGSGSGTDFTLTISSLQPEDFATYYCQHHYDIPWTFGGGTKLEIKRT : + (Complete blocking)
